assay.text: Selectivity ratio of MHC10 for BALB/C mouse erythrocytes to MIC for bacteria
Format: toxicity
Where a SMILES comes first, the peptide text is derived from it.
quantity: selectivity ratio
Give a plain numeric answer without units written out.

>>> observed_result("CC(C)C[C@H](NC(=O)CN)C(=O)N[C@@H](Cc1c[nH]c2ccccc12)C(=O)N[C@@H](CCCCN)C(=O)N[C@@H](CCCNC(=N)N)C(=O)N[C@@H](Cc1c[nH]c2ccccc12)C(=O)N[C@@H](CCCCN)C(=O)N[C@@H](CCCCN)C(=O)N[C@@H](Cc1ccccc1)C(=O)N[C@@H](Cc1c[nH]c2ccccc12)C(N)=O (H-GLWKRWKKFW-NH2)")
8.06
>>> observed_result("CC[C@H](C)[C@H](NC(=O)[C@H](CCCNC(=N)N)NC(=O)[C@H](CCCCN)NC(=O)[C@H](CC(C)C)NC(=O)[C@H](CC(C)C)NC(=O)CN)C(=O)N[C@@H](CCCCN)C(=O)N[C@H](C(=O)N[C@@H](CC(C)C)C(=O)N[C@@H](CC(C)C)C(N)=O)[C@@H](C)O [ANOPLIN] (H-GLLKRIKTLL-NH2)")
6.73

Next compound, please.
Form field: reported selectivity ratio of CC(C)C[C@H](NC(=O)[C@H](Cc1c[nH]c2ccccc12)NC(=O)CN)C(=O)N[C@@H](CCCCN)C(=O)N[C@@H](CCCNC(=N)N)C(=O)N[C@@H](Cc1c[nH]c2ccccc12)C(=O)N[C@@H](CCCCN)C(=O)N[C@H](C(=O)N[C@@H](CC(C)C)C(=O)N[C@@H](Cc1c[nH]c2ccccc12)C(N)=O)[C@@H](C)O (H-GWLKRWKTLW-NH2)
15.4

* * *

Test system: Pseudomonas aeruginosa
assay.text: Antibacterial activity against Pseudomonas aeruginosa ATCC 27853 incubated for 18 hrs by CLSI based broth dilution method
Type: functional
Where a SMILES comes first, the peptide text is derived from it. Bridges are numbered along the chain shown (N, C = ends). [ ]: non-standard residue; d: D form. The star is where a group is joined. Ileψ(thiazoline)Cys = CC[C@H](C)[C@H](N)C1=N[C@H](C(=O)*)CS1; dOrn = NCCC[C@@H](N)C(=O)O
Reported MIC values follow for various compounds

>>> observed_result("N=C(N)NCCC[C@H](NC(=O)[C@H](CCCCN)NC(=O)[C@H](Cc1c[nH]c2ccccc12)NC(=O)[C@H](Cc1c[nH]c2ccccc12)NC(=O)[C@@H](N)CCCCN)C(=O)N[C@@H](Cc1c[nH]c2ccccc12)C(=O)N[C@@H](CCCCN)C(=O)N[C@@H](CCCCN)C(=O)N[C@@H](Cc1c[nH]c2ccccc12)C(=O)N[C@@H](Cc1c[nH]c2ccccc12)C(N)=O (H-KWWKRWKKWW-NH2)")
"16 µM"

Form field: reported MIC of CC[C@H](C)[C@H](NC(=O)[C@H](CCCNC(=N)N)NC(=O)[C@H](CCCNC(=N)N)NC(=O)[C@H](Cc1ccccc1)NC(=O)[C@H](Cc1ccccc1)NC(=O)CN)C(=O)N[C@@H](CCCCN)C(=O)N[C@H](C(=O)N[C@@H](Cc1ccccc1)C(=O)N[C@@H](Cc1ccccc1)C(N)=O)[C@@H](C)O (H-GFFRRIKTFF-NH2)
32 µM

Try the compound C[C@@H](O)[C@H]1C(=O)N2C(C(=O)O)=C(SCCNC=N)C[C@H]12 [IMIPENEM ANHYDROUS]
< 1 µM

Try the compound N=C(N)NCCC[C@H](NC(=O)[C@H](CCCNC(=N)N)NC(=O)[C@H](Cc1c[nH]c2ccccc12)NC(=O)[C@H](CCCNC(=N)N)NC(=O)[C@H](CCCNC(=N)N)NC(=O)[C@H](Cc1c[nH]c2ccccc12)NC(=O)[C@H](Cc1c[nH]c2ccccc12)NC(=O)[C@@H](N)CCCNC(=N)N)C(=O)N[C@@H](Cc1c[nH]c2ccccc12)C(=O)N[C@@H](Cc1c[nH]c2ccccc12)C(N)=O (H-RWWRRWRRWW-NH2)
32 µM

Try the compound CC[C@H](C)[C@H](NC(=O)CN)C(=O)N[C@@H](CCCNC(=N)N)C(=O)N[C@@H](Cc1c[nH]c2ccccc12)C(=O)N[C@@H](CCCCN)C(=O)N[C@@H](Cc1ccccc1)C(=O)N[C@@H](Cc1c[nH]c2ccccc12)C(=O)N[C@@H](CCCCN)C(=O)N[C@@H](Cc1ccccc1)C(=O)N[C@H](C(N)=O)[C@@H](C)O (H-GIRWKFWKFT-NH2)
32 µM

Try the compound CC(C)C[C@H](NC(=O)[C@H](Cc1c[nH]c2ccccc12)NC(=O)CN)C(=O)N[C@@H](CCCCN)C(=O)N[C@@H](CCCNC(=N)N)C(=O)N[C@@H](Cc1c[nH]c2ccccc12)C(=O)N[C@@H](CCCCN)C(=O)N[C@H](C(=O)N[C@@H](CC(C)C)C(=O)N[C@@H](Cc1c[nH]c2ccccc12)C(N)=O)[C@@H](C)O (H-GWLKRWKTLW-NH2)
16 µM

Try the compound CC[C@H](C)[C@H](N)C1=N[C@H](C(=O)N[C@@H](CC(C)C)C(=O)N[C@H](CCC(=O)O)C(=O)N[C@H](C(=O)N[C@H]2CCCCNC(=O)[C@H](CC(N)=O)NC(=O)[C@@H](CC(=O)O)NC(=O)[C@H](Cc3cnc[nH]3)NC(=O)[C@@H](Cc3ccccc3)NC(=O)[C@H]([C@@H](C)CC)NC(=O)[C@@H](CCCN)NC2=O)[C@@H](C)CC)CS1 [BACITRACIN] ({Ileψ(thiazoline)Cys}-L[dE]IK[dOrn]I[dF]H[dD]N; lactam 4-C)
≥ 512 µM

Try the compound CN[C@H](CC(C)C)C(=O)N[C@H]1C(=O)N[C@@H](CC(N)=O)C(=O)N[C@H]2C(=O)N[C@H]3C(=O)N[C@H](C(=O)N[C@H](C(=O)O)c4cc(O)cc(O)c4-c4cc3ccc4O)[C@H](O)c3ccc(c(Cl)c3)Oc3cc2cc(c3O[C@@H]2O[C@H](CO)[C@@H](O)[C@H](O)[C@H]2O[C@H]2C[C@](C)(N)[C@H](O)[C@H](C)O2)Oc2ccc(cc2Cl)[C@H]1O [VANCOMYCIN]
64 µM

Try the compound CC[C@H](C)[C@H](NC(=O)[C@H](CCCNC(=N)N)NC(=O)[C@H](CCCNC(=N)N)NC(=O)[C@H](Cc1ccccc1)NC(=O)[C@H](Cc1ccccc1)NC(=O)CN)C(=O)N[C@@H](CCCNC(=N)N)C(=O)N[C@H](C(=O)N[C@@H](Cc1ccccc1)C(=O)N[C@@H](Cc1ccccc1)C(N)=O)[C@@H](C)O (H-GFFRRIRTFF-NH2)
32 µM

Try the compound CC(C)C[C@H](NC(=O)[C@H](CC(C)C)NC(=O)[C@@H](NC(=O)[C@H](CCCCN)NC(=O)[C@H](C)NC(=O)[C@H](CCCNC(=N)N)NC(=O)[C@H](CCCCN)NC(=O)[C@H](C)NC(=O)[C@H](CC(C)C)NC(=O)CN)[C@@H](C)O)C(N)=O (H-GLAKRAKTLL-NH2)
≥ 512 µM

Try the compound NCCCC[C@H](NC(=O)[C@H](CCCCN)NC(=O)[C@H](Cc1c[nH]c2ccccc12)NC(=O)[C@H](CCCCN)NC(=O)[C@H](CCCCN)NC(=O)[C@H](Cc1c[nH]c2ccccc12)NC(=O)[C@H](Cc1c[nH]c2ccccc12)NC(=O)[C@@H](N)CCCCN)C(=O)N[C@@H](Cc1c[nH]c2ccccc12)C(=O)N[C@@H](Cc1c[nH]c2ccccc12)C(N)=O (H-KWWKKWKKWW-NH2)
4 µM

Try the compound CC(C)C[C@H](NC(=O)[C@H](CC(C)C)NC(=O)[C@@H](NC(=O)[C@H](CCCCN)NC(=O)[C@H](Cc1c[nH]c2ccccc12)NC(=O)[C@H](CCCNC(=N)N)NC(=O)[C@H](CCCCN)NC(=O)[C@H](CC(C)C)NC(=O)[C@H](CC(C)C)NC(=O)CN)[C@@H](C)O)C(N)=O (H-GLLKRWKTLL-NH2)
64 µM

* * *

Tested on: Staphylococcus epidermidis
assay.text: Antibacterial activity against Staphylococcus epidermidis ATCC 12228 incubated for 18 hrs by CLSI based broth dilution method
Assay type: functional
Where a SMILES comes first, the peptide text is derived from it. Bridges are numbered along the chain shown (N, C = ends). [ ]: non-standard residue; d: D form. The star is where a group is joined. Ileψ(thiazoline)Cys = CC[C@H](C)[C@H](N)C1=N[C@H](C(=O)*)CS1; dOrn = NCCC[C@@H](N)C(=O)O
quantity: MIC

Completed entries (count: 2):
>>> observed_result("C[C@@H](O)[C@H]1C(=O)N2C(C(=O)O)=C(SCCNC=N)C[C@H]12 [IMIPENEM ANHYDROUS]")
"< 1 µM"
>>> observed_result("CC[C@H](C)[C@H](N)C1=N[C@H](C(=O)N[C@@H](CC(C)C)C(=O)N[C@H](CCC(=O)O)C(=O)N[C@H](C(=O)N[C@H]2CCCCNC(=O)[C@H](CC(N)=O)NC(=O)[C@@H](CC(=O)O)NC(=O)[C@H](Cc3cnc[nH]3)NC(=O)[C@@H](Cc3ccccc3)NC(=O)[C@H]([C@@H](C)CC)NC(=O)[C@@H](CCCN)NC2=O)[C@@H](C)CC)CS1 [BACITRACIN] ({Ileψ(thiazoline)Cys}-L[dE]IK[dOrn]I[dF]H[dD]N; lactam 4-C)")
"8 µM"

Param readout = MIC; param system = Staphylococcus epidermidis; param query = CC1(C)S[C@@H]2[C@H](NC(=O)Cc3ccccc3)C(=O)N2[C@H]1C(=O)O [PENICILLIN G] ; response: value
16 µM
